Parameter protein stability index: see the listing below.
- System: Saccharomyces cerevisiae
- test-protocol: protein stability index of tFT-peptide fusion (C-terminal peptide) (PSI (0-1 scale)); higher = more stable (slower turnover)
- run-parameters: genetic background: wild type; temperature: 30 C
measured-attribute: protein stability index

{"seq-text": "VHKFGWSLSFSP [POR2 C-terminal 12 aa]", "measured-attribute": "protein stability index", "test-value": 0.681}
{"seq-text": "NNDDSANDLIDR [CCH1 C-terminal 12 aa]", "measured-attribute": "protein stability index", "test-value": 0.681}
{"seq-text": "CKDQTVTQILAT [DMO1 C-terminal 12 aa]", "measured-attribute": "protein stability index", "test-value": 0.682}
{"seq-text": "KEVPLDFDPDRN [ANP1 C-terminal 12 aa]", "measured-attribute": "protein stability index", "test-value": 0.688}
{"seq-text": "EGPRGETIVERF [YJL047C-A C-terminal 12 aa]", "measured-attribute": "protein stability index", "test-value": 0.695}
{"seq-text": "LVSQRITGPGVF [ASI2 C-terminal 12 aa]", "measured-attribute": "protein stability index", "test-value": 0.681}
{"seq-text": "SRSNSHRTFFKR [FPK1 C-terminal 12 aa]", "measured-attribute": "protein stability index", "test-value": 0.714}
{"seq-text": "EEIVGRHSDSAT [YAP6 C-terminal 12 aa]", "measured-attribute": "protein stability index", "test-value": 0.69}
{"seq-text": "CDIQEEQVDITA [PUP1 C-terminal 12 aa]", "measured-attribute": "protein stability index", "test-value": 0.682}
{"seq-text": "QNYPIVSFSRVI [OSW1 C-terminal 12 aa]", "measured-attribute": "protein stability index", "test-value": 0.685}
{"seq-text": "AESPEEADVEMS [PUP2 C-terminal 12 aa]", "measured-attribute": "protein stability index", "test-value": 0.707}
{"seq-text": "YEPTDWECTDAP [YJR096W C-terminal 12 aa]", "measured-attribute": "protein stability index", "test-value": 0.708}
{"seq-text": "PVSESSSPNSWP [YDR230W C-terminal 12 aa]", "measured-attribute": "protein stability index", "test-value": 0.706}

----------
- System: Saccharomyces cerevisiae
- test-protocol: protein stability index of tFT-peptide fusion (C-terminal peptide) (PSI (0-1 scale)); higher = more stable (slower turnover)
- run-parameters: genetic background: wild type; temperature: 30 C

{"seq-text": "CQLCTDPLIDLL", "protein stability index": 0.667}
{"seq-text": "NGLVCVFILSWY", "protein stability index": 0.375}
{"seq-text": "GGSLWLVHLKTI", "protein stability index": 0.181}
{"seq-text": "PPLPPSLPPPPP", "protein stability index": 0.63}
{"seq-text": "PPHSHCPSAPHN", "protein stability index": 0.643}
{"seq-text": "EGTASGSSVRLE", "protein stability index": 0.693}
{"seq-text": "PPSPPCHTVTSA", "protein stability index": 0.679}
{"seq-text": "PYLLPPFLPSPP", "protein stability index": 0.732}
{"seq-text": "FRFVFFFRSGLV", "protein stability index": 0.595}
{"seq-text": "KKEPEKEQQNKE", "protein stability index": 0.746}
{"seq-text": "FAVSTVCWCCGL", "protein stability index": 0.647}

----------
Parameter protein stability index: see the listing below.
- Test system: Saccharomyces cerevisiae
- test-protocol: protein stability index of tFT-peptide fusion (C-terminal peptide) (PSI (0-1 scale)); higher = more stable (slower turnover)
- run-parameters: genetic background: das1 deletion; temperature: 30 C

{"seq-text": "STTKQQSQEAVA [YHL026C C-terminal 12 aa]", "protein stability index": 0.704}
{"seq-text": "IHYKMNENSTNQ [SYO1 C-terminal 12 aa]", "protein stability index": 0.689}
{"seq-text": "ADRASVEIIDAN [PFA3 C-terminal 12 aa]", "protein stability index": 0.705}
{"seq-text": "VFPDVLFTFLFS [YEL010W C-terminal 12 aa]", "protein stability index": 0.702}
{"seq-text": "CMESNPPVFMAI [YNL296W C-terminal 12 aa]", "protein stability index": 0.709}
{"seq-text": "DFSASSSVEEVK [MFT1 C-terminal 12 aa]", "protein stability index": 0.709}
{"seq-text": "YITTPSSSGHAL [YIL141W C-terminal 12 aa]", "protein stability index": 0.716}
{"seq-text": "ISSGPPPRSPNK [IGO2 C-terminal 12 aa]", "protein stability index": 0.68}
{"seq-text": "VVAQKPKLPYTK [YBR225W C-terminal 12 aa]", "protein stability index": 0.694}
{"seq-text": "TSAFNKLHIVEE [YAK1 C-terminal 12 aa]", "protein stability index": 0.712}
{"seq-text": "DKVPVHYPPVVE [SYM1 C-terminal 12 aa]", "protein stability index": 0.686}
{"seq-text": "RYRLSQRQESKK [MRX4 C-terminal 12 aa]", "protein stability index": 0.698}
{"seq-text": "LSDYLSHDFASC [YNL040W C-terminal 12 aa]", "protein stability index": 0.688}
{"seq-text": "KLQPQVYKPWSL [RSC8 C-terminal 12 aa]", "protein stability index": 0.684}
{"seq-text": "TRKWANAAKGMP [YLR407W C-terminal 12 aa]", "protein stability index": 0.689}
{"seq-text": "SSSGTSSSHLEL [APL6 C-terminal 12 aa]", "protein stability index": 0.702}
{"seq-text": "QKLHAIDGEDEL [GPI17 C-terminal 12 aa]", "protein stability index": 0.688}
{"seq-text": "EDAEKRADEMDD [SRM1 C-terminal 12 aa]", "protein stability index": 0.691}
{"seq-text": "EELKKLSNPDMN [CUP9 C-terminal 12 aa]", "protein stability index": 0.713}
{"seq-text": "KGGRLSSKPIIM [SPT3 C-terminal 12 aa]", "protein stability index": 0.683}
{"seq-text": "RNLLSTYHPMLM [YLR124W C-terminal 12 aa]", "protein stability index": 0.679}
{"seq-text": "IEQEAKQRERNQ [COA6 C-terminal 12 aa]", "protein stability index": 0.699}
{"seq-text": "VSPYDYNHKRVS [DIB1 C-terminal 12 aa]", "protein stability index": 0.693}
{"seq-text": "PGCVIENGTKLY [ADE57 C-terminal 12 aa]", "protein stability index": 0.687}
{"seq-text": "ERLIQQGYLQKI [PSF1 C-terminal 12 aa]", "protein stability index": 0.698}
{"seq-text": "NTMGKSGRHNIT [YOR282W C-terminal 12 aa]", "protein stability index": 0.685}
{"seq-text": "VVNKYLKENGYY [APE2 C-terminal 12 aa]", "protein stability index": 0.705}
{"seq-text": "SGKRGVGKTDFR [NOG1 C-terminal 12 aa]", "protein stability index": 0.716}
{"seq-text": "YEKVVELWNKVV [MNT4 C-terminal 12 aa]", "protein stability index": 0.701}
{"seq-text": "YDLEAGENKFNF [URA7 C-terminal 12 aa]", "protein stability index": 0.702}
{"seq-text": "AKERLNPPSNRR [NIP1 C-terminal 12 aa]", "protein stability index": 0.708}
{"seq-text": "KKARKMPTWVKR [MRPS9 C-terminal 12 aa]", "protein stability index": 0.693}
{"seq-text": "RLKSSVICSGTS [YLR399W-A C-terminal 12 aa]", "protein stability index": 0.682}
{"seq-text": "SSYFRIEGKKKK [CUE2 C-terminal 12 aa]", "protein stability index": 0.68}
{"seq-text": "FENGGKLKEVDK [MDM35 C-terminal 12 aa]", "protein stability index": 0.686}
{"seq-text": "LTALLETVNKYR [GCG1 C-terminal 12 aa]", "protein stability index": 0.7}
{"seq-text": "KSQISVSFYRDN [YPR027C C-terminal 12 aa]", "protein stability index": 0.704}

----------
- Tested on: Saccharomyces cerevisiae
- test-protocol: protein stability index of tFT-peptide fusion (C-terminal peptide) (PSI (0-1 scale)); higher = more stable (slower turnover)
- run-parameters: genetic background: wild type; temperature: 30 C
Classification field: enter criterion met for protein stability index values not below 0.7, criterion not met for values below it.

{"seq-text": "SPPPPQEADYVV", "class-assignment": "criterion not met"}
{"seq-text": "TATRIPHTPIPL", "class-assignment": "criterion met"}
{"seq-text": "PLSPFLRFLSSP", "class-assignment": "criterion not met"}
{"seq-text": "SSDSYANLNWVI", "class-assignment": "criterion met"}
{"seq-text": "DSFLLSSKICWT", "class-assignment": "criterion met"}
{"seq-text": "TSTDLKKTNLQN", "class-assignment": "criterion not met"}
{"seq-text": "GGGVGGPGGVLK", "class-assignment": "criterion not met"}
{"seq-text": "LGPLPHDGFSMF", "class-assignment": "criterion met"}
{"seq-text": "GLVRGGGGTVGG", "class-assignment": "criterion met"}
{"seq-text": "VFLLLSLSVFFE", "class-assignment": "criterion not met"}
{"seq-text": "GGFVVGGGGWLG", "class-assignment": "criterion met"}
{"seq-text": "YLVKSCCNKDNV", "class-assignment": "criterion not met"}
{"seq-text": "VSNVSDSGHPYL", "class-assignment": "criterion not met"}
{"seq-text": "RGAHPCLDLRSE", "class-assignment": "criterion not met"}
{"seq-text": "LLVREVGVERTF", "class-assignment": "criterion met"}
{"seq-text": "GVGGFGFGWSMV", "class-assignment": "criterion met"}
{"seq-text": "RVKNVDAVKKHK", "class-assignment": "criterion not met"}
{"seq-text": "VSAYWFLLFGSV", "class-assignment": "criterion not met"}
{"seq-text": "PPPHAKPPPGPL", "class-assignment": "criterion not met"}
{"seq-text": "GGGWGSRGVCLG", "class-assignment": "criterion not met"}
{"seq-text": "VSWWRGVYVVLF", "class-assignment": "criterion not met"}
{"seq-text": "SPFPPLPSRPPP", "class-assignment": "criterion not met"}

Origin of values: the supplement of paper PMC10724198
